Cited source: ChEMBL document CHEMBL1201862

assay_procedure: microbe, parasite or virus in culture
Type: functional
details: Mycobacterium tuberculosis
Activity calls are given as the source filed them.
measure_name: CC50

molecule: O=C(Oc1c(Cl)cc(Cl)c2cccnc12)c1cccs1
CC50: 17.3 µM (active)

Batch: CC50 for all items listed.
1. CCOc1cc(/C=C2\COc3ccccc3C2=O)cc(Br)c1OCC(=O)N(C)C
2. CC(C)(C)C1CCc2c(sc3nc(SCC(N)=O)nc(N)c23)C1 (centres undefined)
3. C/C(=N/Nc1cc(-c2ccccc2)nc(-c2ccccc2)n1)c1ccc(O)cc1

Result ::
15.2 µM (active)
> 40 µM (active)
18.2 µM (active)

###

test_system: Caspase-6 (Homo sapiens, UniProt P55212)
Sequence (P55212 whole entry): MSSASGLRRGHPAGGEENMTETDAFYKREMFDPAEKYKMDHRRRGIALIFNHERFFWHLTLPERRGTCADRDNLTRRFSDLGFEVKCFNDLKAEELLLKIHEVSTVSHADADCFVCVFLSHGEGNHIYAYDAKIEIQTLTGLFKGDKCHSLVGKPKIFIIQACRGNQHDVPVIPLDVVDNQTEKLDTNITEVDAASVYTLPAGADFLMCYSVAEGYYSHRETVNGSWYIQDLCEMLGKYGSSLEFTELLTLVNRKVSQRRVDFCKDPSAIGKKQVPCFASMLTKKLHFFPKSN
assay_procedure: human caspase-6 inhibitors, dose response, biochemical, VEID-R110 fluorescence, cherry-pick (AID 720632)
The source made the active and inactive calls.
Kindly state AC50 for each of the entries shown.

structure_smiles: CC(=O)N1CCc2cc(Br)cc(S(=O)(=O)N3CCC(C(=O)O)CC3)c21
value: 30.4 µM (active)

structure_smiles: [O-][n+]1onc2c1CCc1c-2nn(-c2ccccc2Cl)[n+]1[O-]
value: 0.651 µM (active)

Value sought for every listed compound: AC50.
1. CCOc1cc(N2CCOCC2)c(OCC)cc1NS(=O)(=O)c1cc(NC(C)=O)ccc1OC
2. COc1ccc(S(=O)(=O)Nc2cc(Sc3nc[nH]n3)c(O)c3ccccc23)cc1

Result ::
1: 34.5 µM (active); 2: 0.998 µM (active)

###

Answer each item with its documented EC50.
test_system: Serine/threonine-protein phosphatase (Candida dubliniensis (strain CD36 / CBS 7987 / NCPF 3949 / NRRLY-17841) (Yeast), UniProt B9W6M3)
Sequence (B9W6M3 whole entry): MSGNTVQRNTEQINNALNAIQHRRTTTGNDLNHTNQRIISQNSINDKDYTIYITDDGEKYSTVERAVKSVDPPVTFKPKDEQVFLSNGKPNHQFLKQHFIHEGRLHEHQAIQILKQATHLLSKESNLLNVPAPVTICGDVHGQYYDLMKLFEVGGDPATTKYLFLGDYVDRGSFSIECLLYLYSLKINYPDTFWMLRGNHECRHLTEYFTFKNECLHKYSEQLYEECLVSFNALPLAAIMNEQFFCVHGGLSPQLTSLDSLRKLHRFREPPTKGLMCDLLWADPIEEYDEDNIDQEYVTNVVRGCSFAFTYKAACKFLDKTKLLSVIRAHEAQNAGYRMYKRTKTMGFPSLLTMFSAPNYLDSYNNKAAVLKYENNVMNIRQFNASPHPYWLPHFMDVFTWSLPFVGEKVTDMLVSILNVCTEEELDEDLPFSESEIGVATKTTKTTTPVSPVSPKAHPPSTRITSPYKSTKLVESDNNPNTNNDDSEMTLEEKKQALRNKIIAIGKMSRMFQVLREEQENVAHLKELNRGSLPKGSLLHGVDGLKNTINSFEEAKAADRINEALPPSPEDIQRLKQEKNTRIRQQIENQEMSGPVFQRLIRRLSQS
assay_procedure: calcineurin pathway inhibitors in yeast reporter, dose response, S. cerevisiae, CDRE-lacZ, luminescence, secondary (AID 2388);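 further: yeast reporter cells carrying a calcineurin-responsive lacZ construct stimulated with calcium chloride; luminescent beta-galactosidase reporter signal in whole cells rather than isolated phosphatase activity; potency for inhibition where a drop in reporter signal means calcineurin blockade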
Format: functional, cell-based
Active and inactive are the calls of the source.

# example entries with known answers
structure_smiles: O=c1[nH]c(-c2ccccn2)nc(C(F)(F)F)c1Br
EC50: > 180 µM (inactive)
--
structure_smiles: CCOc1ccc(N=Nc2ccc(O)c3ncccc23)cc1
EC50: > 180 µM (inactive)
--
structure_smiles: O=c1c2cc(Br)ccc2nc(-c2ccc([N+](=O)[O-])cc2)n1O
EC50: 3.07 µM (active)
--
structure_smiles: Oc1ccc2ccccc2c1/C=N/Nc1nnc(-c2ncc[nH]2)c2ccccc12
EC50: > 180 µM (inactive)

Consider the record given below.
Query :: Recall and state the measured EC50 for "O=C(Oc1c(Cl)cc(Cl)c2cccnc12)c1cccs1" .
Result :: > 180 µM (inactive)

###

test_system: UniProtKB Q8IL11
Sequence (Q8IL11 whole entry): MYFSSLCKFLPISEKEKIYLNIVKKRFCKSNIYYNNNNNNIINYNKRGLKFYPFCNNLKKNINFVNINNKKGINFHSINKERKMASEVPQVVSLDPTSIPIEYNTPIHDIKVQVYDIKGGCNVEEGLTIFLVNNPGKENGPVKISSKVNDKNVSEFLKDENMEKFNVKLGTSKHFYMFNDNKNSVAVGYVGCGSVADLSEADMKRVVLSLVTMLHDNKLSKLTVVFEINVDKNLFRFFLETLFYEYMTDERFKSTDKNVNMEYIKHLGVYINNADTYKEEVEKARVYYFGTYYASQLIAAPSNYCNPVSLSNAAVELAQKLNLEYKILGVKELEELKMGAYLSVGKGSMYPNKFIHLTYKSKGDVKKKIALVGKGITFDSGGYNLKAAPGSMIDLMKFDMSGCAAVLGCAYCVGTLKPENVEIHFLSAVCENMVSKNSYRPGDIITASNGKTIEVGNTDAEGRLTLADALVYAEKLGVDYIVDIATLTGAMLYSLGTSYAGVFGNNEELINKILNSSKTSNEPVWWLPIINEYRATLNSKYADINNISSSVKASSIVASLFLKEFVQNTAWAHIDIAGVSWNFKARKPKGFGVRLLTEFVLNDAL
assay_procedure: P. falciparum M17LAP inhibitors, primary screen, biochemical, fluorogenic H-Leu-NHMec substrate, 1536-well (AID 1619)
Type: functional
Activity calls are given as the source filed them.
Please respond with reported IC50 for every item in the list.

structure_smiles: CC(C)(C)c1ccc(/C=N/Nc2ccc(C(=O)O)cc2)cc1
test_system: UniProtKB Q8IL11
value: 13.3 µM (active)

For every record below, what is its IC50?
1. COc1ccc2nc(SCC(=O)Nc3cc(OC)c(OC)cc3C(=O)O)c(C)cc2c1
2. O=C(O)CC/C(=N/NC(=O)c1cccs1)c1ccccc1
3. Cc1ccc(C(=O)Nc2nc(=O)n(C(=O)CC(C)C)s2)cc1
4. O=C(O)COc1ccc(Br)cc1/C=C1/SC(=O)N(CC(=O)N2CCCC2)C1=O

Result ::
1: < 1 µM (active); 2: 36 µM (active); 3: 24.5 µM (active); 4: 34.8 µM (active)
